System: OV-56 (Ovarian Carcinoma);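 also: after 72 h of two-drug dosing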
Assay: Bliss excess, mean over the matrix (fraction); higher = more synergy

molecule | Bliss excess
Cn1cnc2c(F)c(Nc3ccc(Br)cc3Cl)c(C(=O)NOCCO)cc21 [Selumetinib] + C=CCn1c(=O)c2cnc(Nc3ccc(N4CCN(C)CC4)cc3)nc2n1-c1cccc(C(C)(C)O)n1 [AZD1775] (first compound max 10 µM, partner max 1 µM) | -0.0766
Cc1c2c(nn1C)CSCc1cc(n(C)n1)CSc1cc(c3ccccc3c1)OCCCc1c(C(=O)O)n(C)c3c-2c(Cl)ccc13 [AZD5991] + Cn1cnc2c(F)c(Nc3ccc(Br)cc3Cl)c(C(=O)NOCCO)cc21 [Selumetinib] (first compound max 1 µM, 7x7, partner max 3 µM) | 0.0034
COc1cccc(OCCCN)c1-c1cc(Nc2cnc(C#N)cn2)n[nH]1 [Prexasertib] + O=C(c1cc(Cc2n[nH]c(=O)c3ccccc23)ccc1F)N1CCN(C(=O)C2CC2)CC1 [Olaparib] (first compound max 1 µM, 7x7, partner max 10 µM) | -0.0739
COc1cccc(OCCCN)c1-c1cc(Nc2cnc(C#N)cn2)n[nH]1 [Prexasertib] + CN(C)CCCOc1ccc(-c2ccc3ncc4c(c3c2)n(C2CCOCC2)c(=O)n4C)cn1 [AZD0156] (first compound max 1 µM, 7x7, partner max 1 µM) | -0.0442

These data points were gathered from the supplement of paper PMC11061612.
